Tested on: hLTBP1-/hLTBP3-proTGFβ1 vs hGARP-/hLRRC33-proTGFβ1 complexes
Experiment: Solution equilibrium titration: relative affinity (bias) LTBP complexes vs cell-associated complexes
Type: binding, human
Details: MSD-SET, ratio of average KD cell-associated / matrix-associated
readout_label: (H) G/D (fold bias) (fold)

molecule | readout_label | unit_annotation | recorded_result
Ab30: monoclonal antibody; VH SEQ ID NO: 138, VL SEQ ID NO: 15 (antibody, V domains shown) VH: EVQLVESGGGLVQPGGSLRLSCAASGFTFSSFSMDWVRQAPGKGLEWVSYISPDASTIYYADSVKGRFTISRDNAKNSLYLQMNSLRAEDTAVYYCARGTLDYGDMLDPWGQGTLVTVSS VL: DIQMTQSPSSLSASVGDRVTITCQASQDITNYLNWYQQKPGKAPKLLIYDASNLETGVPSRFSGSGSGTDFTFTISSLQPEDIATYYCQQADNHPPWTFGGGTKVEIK | (H) G/D (fold bias) | fold | 2.80
Ab12: monoclonal antibody; VH SEQ ID NO: 237, VL SEQ ID NO: 241 (antibody, V domains shown) VH: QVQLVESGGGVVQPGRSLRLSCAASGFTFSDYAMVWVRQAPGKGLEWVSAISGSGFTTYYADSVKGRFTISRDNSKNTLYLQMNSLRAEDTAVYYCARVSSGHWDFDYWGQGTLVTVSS VL: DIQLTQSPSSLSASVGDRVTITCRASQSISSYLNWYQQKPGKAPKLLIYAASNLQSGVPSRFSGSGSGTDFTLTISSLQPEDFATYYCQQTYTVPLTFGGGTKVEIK | (H) G/D (fold bias) | fold | 3.40
